The values you see were collected from patent US20210284621A1.

Target: CB2 receptor (Homo sapiens)
Sequence (P34972 whole entry): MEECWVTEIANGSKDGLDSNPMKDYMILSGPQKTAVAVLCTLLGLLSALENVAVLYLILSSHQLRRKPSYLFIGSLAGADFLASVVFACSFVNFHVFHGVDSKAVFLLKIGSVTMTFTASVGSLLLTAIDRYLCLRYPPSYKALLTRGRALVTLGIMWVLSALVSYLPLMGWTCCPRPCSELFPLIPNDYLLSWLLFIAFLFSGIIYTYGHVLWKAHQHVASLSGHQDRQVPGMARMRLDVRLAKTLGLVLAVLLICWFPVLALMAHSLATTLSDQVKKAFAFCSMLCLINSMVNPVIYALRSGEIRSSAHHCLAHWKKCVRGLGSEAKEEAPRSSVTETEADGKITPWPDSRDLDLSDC
Test: cAMP Assay #2: Hit Hunter cAMP assay, Gi-coupled agonist activity, CB2
Format: cell-based
Set-up: host or cells: cAMP Hunter cell lines
Simple rule here: EC50 less than 8 nM is Condition met, otherwise Condition not met.

Before answering, review these 6 worked examples.
input: # strict comparison: is reported EC50 < 8 nM? input = CCCCCCC(C)(C)c1cc(O)c2c(c1)OC(C)(C)[C@@H]1CC=C(C(=O)O)C[C@@H]21 [AJA, reference compound]
output: Condition met

input: # strict comparison: is reported EC50 < 8 nM? input = CC(C)(CCCCCCO)c1cc(O)c2c(c1)OC(C)(C)[C@@H]1CC=C(C(=O)O)C[C@@H]21
output: Condition not met

input: # strict comparison: is reported EC50 < 8 nM? input = CCCCCCC(C)(C)c1cc(O)c2c(c1)OC(C)(C)[C@@H]1CC=C(C(=O)NC3CC3)C[C@@H]21
output: Condition met

input: # strict comparison: is reported EC50 < 8 nM? input = CCCC(C)(C)c1cc(O)c2c(c1)OC(C)(C)[C@@H]1CC=C(C(=O)O)C[C@@H]21
output: Condition not met

input: # strict comparison: is reported EC50 < 8 nM? input = CCCCCCC(C)(C)c1cc(O)c2c(c1)OC(C)(C)[C@@H]1CC=C(C(=O)N[C@H]3C[C@H](O)C3)C[C@@H]21
output: Condition not met

input: # strict comparison: is reported EC50 < 8 nM? input = CCCCCCC(C)(C)c1cc(O)c2c(c1)OC(C)(C)c1ccc(C(=O)O)cc1-2
output: Condition not met

New cases:
input: # strict comparison: is reported EC50 < 8 nM? input = CCCCCCC(C)(C)c1cc(O)c2c(c1)OC(C)(C)[C@@H]1CC=C(C(=O)NC3CC(F)(F)C3)C[C@@H]21
output: Condition met

input: # strict comparison: is reported EC50 < 8 nM? input = CCCCCCC(C)(C)c1cc(O)c2c(c1)OC(C)(C)[C@@H]1CC=C(C(=O)NC(C)(C)C)C[C@@H]21
output: Condition met

input: # strict comparison: is reported EC50 < 8 nM? input = CCCCCCC(C)(C)c1cc(O)c2c(c1)OC(C)(C)[C@@H]1CC=C(C(=O)NC(C)C)C[C@@H]21
output: Condition met

input: # strict comparison: is reported EC50 < 8 nM? input = CCCCCCC(C)(C)c1cc(O)c2c(c1)OC(C)(C)[C@@H]1CC=C(C(=O)NO)C[C@@H]21
output: Condition not met

input: # strict comparison: is reported EC50 < 8 nM? input = CCCCCCC(C)(C)c1cc(O)c2c(c1)OC(C)(C)[C@@H]1CC=C(C(=O)NC3CCCC3)C[C@@H]21
output: Condition met

input: # strict comparison: is reported EC50 < 8 nM? input = CCCCCCC(C)(C)c1cc(O)c2c(c1)OC(C)(C)[C@@H]1CC=C(C(=O)NN3CCCCC3)C[C@@H]21
output: Condition met

input: # strict comparison: is reported EC50 < 8 nM? input = CCCCCCC(C)(C)c1cc(O)c2c(c1)OC(C)(C)[C@@H]1CC=C(C(=O)N[C@H]3C[C@@H](O)C3)C[C@@H]21
output: Condition not met

input: # strict comparison: is reported EC50 < 8 nM? input = CCCCCCC(C)(C)c1cc(O)c2c(c1)OC(C)(C)[C@@H]1CC=C(C(=O)OC(C)C)C[C@@H]21
output: Condition met
